Hey, just so you know, these numbers are from paper PMC7356589.

Consider the following compounds and their measured IC50 at 48 h readings.
test.name: Cytotoxicity on Vero cells (MTT)
Type: cell-based, monkey
assay.setup: monkey; Vero cells, 48 h, MTT; read-out: Cytotoxicity on Vero Cells IC50 ± SEM

compound	unit.descriptor	IC50 at 48 h
Cc1cc(C)c(-[n+]2ccn(CCCCCO[C@H]3O[C@@H]4O[C@@]5(C)CCC6[C@H](C)CCC([C@H]3C)[C@]64OO5)c2)c(C)c1 (stereo partly shown)	µM	25
C[C@@H]1CCC2[C@@H](C)[C@@H](OCCCCCn3cc[n+](Cc4ccccc4)c3)O[C@@H]3O[C@@]4(C)CCC1[C@@]23OO4 (stereo partly shown)	µM	1
C[C@@H]1CC[C@H]2[C@@H](C)C(=O)O[C@@H]3O[C@@]4(C)CC[C@@H]1[C@]32OO4 [Artemisinin, reference compound]	µM	130
C[C@@H]1CCC2[C@@H](C)[C@@H](OCCCBr)O[C@@H]3O[C@@]4(C)CCC1[C@@]23OO4 (stereo partly drawn) [DHA-C3, 10β-(20-Bromopropoxy)dihydroartemisinin]	µM	2.5

====

System: P. falciparum strain F32-TEM (F32-Tanzania)
test.name: In vitro antiplasmodial activity (SYBR Green fluorescence and [3H] hypoxanthine assays)
Type: cell-based, Plasmodium falciparum
assay.setup: strain F32-Tanzania (F32-TEM); mean of at least 4 experiments, SYBR Green and radioactivity assays; 48 h; read-out: Antiplasmodial Activity on P. falciparum IC50 ± SEM

compound	experimental.target	IC50
C[C@@H]1CCC2[C@@H](C)[C@@H](OCCCCn3cc[n+](C)[c]3[Au-][c]3n(CCCCO[C@H]4O[C@@H]5O[C@@]6(C)CCC7[C@H](C)CCC([C@H]4C)[C@]75OO6)cc[n+]3C)O[C@@H]3O[C@@]4(C)CCC1[C@@]23OO4.[Cl-] (stereo partly shown)	P. falciparum strain F32-TEM (F32-Tanzania)	13 nM
C[C@@H]1CCC2[C@@H](C)[C@@H](OCCCCn3cc[n+](-c4ccc5ccccc5n4)[c]3[Au-][c]3n(CCCCO[C@H]4O[C@@H]5O[C@@]6(C)CCC7[C@H](C)CCC([C@H]4C)[C@]75OO6)cc[n+]3-c3ccc4ccccc4n3)O[C@@H]3O[C@@]4(C)CCC1[C@@]23OO4.[Cl-] (stereo partly shown)	P. falciparum strain F32-TEM (F32-Tanzania)	83 nM
CC(C)[n+]1ccn(CCCO[C@H]2O[C@@H]3O[C@@]4(C)CCC5[C@H](C)CCC([C@H]2C)[C@]53OO4)[c]1[Au-][c]1n(CCCO[C@H]2O[C@@H]3O[C@@]4(C)CCC5[C@H](C)CCC([C@H]2C)[C@]53OO4)cc[n+]1C(C)C.[Cl-] (stereo partly shown)	P. falciparum strain F32-TEM (F32-Tanzania)	13 nM
C[C@@H]1CCC2[C@@H](C)[C@@H](OCCCn3cc[n+](-c4ccc5ccccc5n4)[c]3[Au-][c]3n(CCCO[C@H]4O[C@@H]5O[C@@]6(C)CCC7[C@H](C)CCC([C@H]4C)[C@]75OO6)cc[n+]3-c3ccc4ccccc4n3)O[C@@H]3O[C@@]4(C)CCC1[C@@]23OO4.[Cl-] (stereo partly shown)	P. falciparum strain F32-TEM (F32-Tanzania)	23 nM
C[C@@H]1CCC2[C@@H](C)[C@@H](OCCCCCn3cc[n+](Cc4ccccc4)[c]3[Au-][c]3n(CCCCCO[C@H]4O[C@@H]5O[C@@]6(C)CCC7[C@H](C)CCC([C@H]4C)[C@]75OO6)cc[n+]3Cc3ccccc3)O[C@@H]3O[C@@]4(C)CCC1[C@@]23OO4.[Cl-] (stereo partly shown)	P. falciparum strain F32-TEM (F32-Tanzania)	72 nM
Cc1cc(C)c(-[n+]2ccn(CCCCCO[C@H]3O[C@@H]4O[C@@]5(C)CCC6[C@H](C)CCC([C@H]3C)[C@]64OO5)[c]2[Au-][c]2n(CCCCCO[C@H]3O[C@@H]4O[C@@]5(C)CCC6[C@H](C)CCC([C@H]3C)[C@]64OO5)cc[n+]2-c2c(C)cc(C)cc2C)c(C)c1.[Cl-] (stereo partly shown)	P. falciparum strain F32-TEM (F32-Tanzania)	100 nM
C[C@@H]1CCC2[C@@H](C)[C@@H](OCCCn3cc[n+](Cc4ccccc4)[c]3[Au-][c]3n(CCCO[C@H]4O[C@@H]5O[C@@]6(C)CCC7[C@H](C)CCC([C@H]4C)[C@]75OO6)cc[n+]3Cc3ccccc3)O[C@@H]3O[C@@]4(C)CCC1[C@@]23OO4.[Cl-] (stereo partly shown)	P. falciparum strain F32-TEM (F32-Tanzania)	22 nM
C[C@@H]1CCC2[C@@H](C)[C@@H](OCCCn3cc[n+](C)[c]3[Au-][c]3n(CCCO[C@H]4O[C@@H]5O[C@@]6(C)CCC7[C@H](C)CCC([C@H]4C)[C@]75OO6)cc[n+]3C)O[C@@H]3O[C@@]4(C)CCC1[C@@]23OO4.O=[N+]([O-])[O-] (stereo partly shown)	P. falciparum strain F32-TEM (F32-Tanzania)	35 nM
C[C@@H]1CCC2[C@@H](C)[C@@H](OCCCCCn3cc[n+](Cc4ccccc4)c3)O[C@@H]3O[C@@]4(C)CCC1[C@@]23OO4 (stereo partly shown)	P. falciparum strain F32-TEM (F32-Tanzania)	98 nM
Cc1cc(C)c(-[n+]2ccn(CCCO[C@H]3O[C@@H]4O[C@@]5(C)CCC6[C@H](C)CCC([C@H]3C)[C@]64OO5)[c]2[Au-][c]2n(CCCO[C@H]3O[C@@H]4O[C@@]5(C)CCC6[C@H](C)CCC([C@H]3C)[C@]64OO5)cc[n+]2-c2c(C)cc(C)cc2C)c(C)c1.[Cl-] (stereo partly shown)	P. falciparum strain F32-TEM (F32-Tanzania)	61 nM
C[C@@H]1CCC2[C@@H](C)[C@@H](OCCCCn3cc[n+](Cc4ccccc4)[c]3[Au-][c]3n(CCCCO[C@H]4O[C@@H]5O[C@@]6(C)CCC7[C@H](C)CCC([C@H]4C)[C@]75OO6)cc[n+]3Cc3ccccc3)O[C@@H]3O[C@@]4(C)CCC1[C@@]23OO4.[Cl-] (stereo partly shown)	P. falciparum strain F32-TEM (F32-Tanzania)	40 nM
Cc1cc(C)c(-[n+]2ccn(CCCCCO[C@H]3O[C@@H]4O[C@@]5(C)CCC6[C@H](C)CCC([C@H]3C)[C@]64OO5)c2)c(C)c1 (stereo partly shown)	P. falciparum strain F32-TEM (F32-Tanzania)	98 nM
CC(=O)OC[C@H]1O[C@@H]([S-])[C@H](OC(C)=O)[C@@H](OC(C)=O)[C@@H]1OC(C)=O.CCP(CC)CC.[Au+] [Auranofin, reference compound]	P. falciparum strain F32-TEM (F32-Tanzania)	1500 nM
C[C@@H]1CCC2[C@@H](C)[C@@H](OCCCCCn3cc[n+](-c4ccc5ccccc5n4)[c]3[Au-][c]3n(CCCCCO[C@H]4O[C@@H]5O[C@@]6(C)CCC7[C@H](C)CCC([C@H]4C)[C@]75OO6)cc[n+]3-c3ccc4ccccc4n3)O[C@@H]3O[C@@]4(C)CCC1[C@@]23OO4.[Cl-] (stereo partly shown)	P. falciparum strain F32-TEM (F32-Tanzania)	38 nM
C[C@@H]1CCC2[C@@H](C)[C@@H](OCCCCCn3cc[n+](C)[c]3[Au-][c]3n(CCCCCO[C@H]4O[C@@H]5O[C@@]6(C)CCC7[C@H](C)CCC([C@H]4C)[C@]75OO6)cc[n+]3C)O[C@@H]3O[C@@]4(C)CCC1[C@@]23OO4.[Cl-] (stereo partly shown)	P. falciparum strain F32-TEM (F32-Tanzania)	9 nM
Cc1cc(C)c(-[n+]2ccn(CCCCO[C@H]3O[C@@H]4O[C@@]5(C)CCC6[C@H](C)CCC([C@H]3C)[C@]64OO5)[c]2[Au-][c]2n(CCCCO[C@H]3O[C@@H]4O[C@@]5(C)CCC6[C@H](C)CCC([C@H]3C)[C@]64OO5)cc[n+]2-c2c(C)cc(C)cc2C)c(C)c1.[Cl-] (stereo partly shown)	P. falciparum strain F32-TEM (F32-Tanzania)	38 nM

====

System: Vero cell line
test.name: Cytotoxicity on Vero cells (MTT)
Assay type: cell-based, monkey
assay.setup: Vero cells, 48 h, MTT; read-out: Cytotoxicity on Vero Cells IC50 ± SEM
pIC50: −log10 of the molar value.
# binarize pIC50: threshold 6 inclusive, high side Satisfied, low side Not satisfied

compound	class
C[C@@H]1CCC2[C@@H](C)[C@@H](OCCCn3cc[n+](C)[c]3[Au-][c]3n(CCCO[C@H]4O[C@@H]5O[C@@]6(C)CCC7[C@H](C)CCC([C@H]4C)[C@]75OO6)cc[n+]3C)O[C@@H]3O[C@@]4(C)CCC1[C@@]23OO4.O=[N+]([O-])[O-] (some centres unmarked)	Not satisfied
C[C@@H]1CCC2[C@@H](C)[C@@H](OCCCn3cc[n+](Cc4ccccc4)[c]3[Au-][c]3n(CCCO[C@H]4O[C@@H]5O[C@@]6(C)CCC7[C@H](C)CCC([C@H]4C)[C@]75OO6)cc[n+]3Cc3ccccc3)O[C@@H]3O[C@@]4(C)CCC1[C@@]23OO4.[Cl-] (some centres unmarked)	Satisfied
C[C@@H]1CCC2[C@@H](C)[C@@H](OCCCCCn3cc[n+](Cc4ccccc4)[c]3[Au-][c]3n(CCCCCO[C@H]4O[C@@H]5O[C@@]6(C)CCC7[C@H](C)CCC([C@H]4C)[C@]75OO6)cc[n+]3Cc3ccccc3)O[C@@H]3O[C@@]4(C)CCC1[C@@]23OO4.[Cl-] (some centres unmarked)	Satisfied
Cc1cc(C)c(-[n+]2ccn(CCCO[C@H]3O[C@@H]4O[C@@]5(C)CCC6[C@H](C)CCC([C@H]3C)[C@]64OO5)[c]2[Au-][c]2n(CCCO[C@H]3O[C@@H]4O[C@@]5(C)CCC6[C@H](C)CCC([C@H]3C)[C@]64OO5)cc[n+]2-c2c(C)cc(C)cc2C)c(C)c1.[Cl-] (some centres unmarked)	Satisfied
C[C@@H]1CCC2[C@@H](C)[C@@H](OCCCCCn3cc[n+](-c4ccc5ccccc5n4)[c]3[Au-][c]3n(CCCCCO[C@H]4O[C@@H]5O[C@@]6(C)CCC7[C@H](C)CCC([C@H]4C)[C@]75OO6)cc[n+]3-c3ccc4ccccc4n3)O[C@@H]3O[C@@]4(C)CCC1[C@@]23OO4.[Cl-] (some centres unmarked)	Not satisfied
